- target: TGFβ R1 (Homo sapiens)
- Sequence (P36897 34-503): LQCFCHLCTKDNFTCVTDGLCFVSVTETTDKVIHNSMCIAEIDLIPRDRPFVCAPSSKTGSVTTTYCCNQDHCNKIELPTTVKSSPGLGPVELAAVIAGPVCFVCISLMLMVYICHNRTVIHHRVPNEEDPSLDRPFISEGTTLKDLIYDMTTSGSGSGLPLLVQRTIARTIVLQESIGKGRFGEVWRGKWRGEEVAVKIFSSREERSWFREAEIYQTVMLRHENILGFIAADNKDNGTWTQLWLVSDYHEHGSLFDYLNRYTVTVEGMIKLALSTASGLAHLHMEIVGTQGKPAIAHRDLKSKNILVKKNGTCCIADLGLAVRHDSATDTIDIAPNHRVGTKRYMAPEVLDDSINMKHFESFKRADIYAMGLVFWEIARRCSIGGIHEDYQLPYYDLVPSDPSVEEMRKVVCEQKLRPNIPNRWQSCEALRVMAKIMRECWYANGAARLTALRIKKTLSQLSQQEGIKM
- experimental.protocol: TGFβ R1 autophosphorylation protocol (33P-ATP, phosphocellulose filter plate)
- Assay type: biochemical
- run.conditions: 10 uM ATP, 170 nM TGFβ R1, 20 minutes at room temperature, read-out: IC50 for Kinase Inhibition
value.type: pIC50
To interpret pIC50, take it as minus log10 of a concentration measured in moles per litre.

Prompt: # lookup: pIC50 of COc1cnc(-c2cc(Cl)ccc2F)nc1Nc1ccncc1C(=O)NCCNCCO [Compound 6]
Response: 8.00

Prompt: What does the record list as pIC50 for COc1cnc(-c2cc(Cl)ccc2F)nc1Nc1ccncc1C(=O)NCC1CCCC[C@H]1O (stereo in doubt) [Compound 31] ?
Response: 6.43

Prompt: Which value of pIC50 has been reported for CNC(=O)NCCCNC(=O)c1cnccc1Nc1nc(-c2cc(Cl)ccc2F)ncc1OC [Compound 74] in the records?
Response: 6.82

Prompt: Fill blank: measured pIC50 of the compound COc1cnc(-c2cc(Cl)ccc2F)nc1Nc1ccncc1C(=O)NCCNCCOC1O[C@H](COC(C)=O)[C@@H](OC(C)=O)[C@H](OC(C)=O)[C@H]1OC(C)=O (stereo partly shown) [Compound 142] is ____.
Response: 8.00

Prompt: What does the data say about its pIC50? Entry: CNC(=O)NCCNC(=O)c1cnccc1Nc1nc(-c2cc(Cl)ccc2F)ncc1OC [Compound 68]
Response: 5.81

Prompt: Returns the measured pIC50 for the input compound. Input: COC[C@H]1OC(CCNCCCNC(=O)c2cnccc2Nc2nc(-c3cc(Cl)ccc3F)ncc2OC)[C@@H](OC)[C@@H](OC)[C@@H]1OC (stereo partly shown) [Compound 96]
Response: 7.15

Prompt: Suppose we examine the compound COc1cnc(-c2cc(Cl)ccc2F)nc1Nc1ccncc1C(=O)NCCNCC(C)O (stereo not shown) [Compound 5] ; what pIC50 value has been reported?
Response: 7.70
